assay: Solubility of substrate in assay buffer; format: physicochemical; settings: HDAC assay buffer, aqueous buffer
Readout: solubility

Query (molecule): `CC(=O)Oc1ccc2ccc(=O)oc2c1` ; field requested: solubility
≤ 1000 µM

* * *

Target: Hos3 (Saccharomyces cerevisiae, UniProt Q02959)
Construct: made in house; host or cells: E. coli BL21(DE3)
Sequence (Q02959 whole entry): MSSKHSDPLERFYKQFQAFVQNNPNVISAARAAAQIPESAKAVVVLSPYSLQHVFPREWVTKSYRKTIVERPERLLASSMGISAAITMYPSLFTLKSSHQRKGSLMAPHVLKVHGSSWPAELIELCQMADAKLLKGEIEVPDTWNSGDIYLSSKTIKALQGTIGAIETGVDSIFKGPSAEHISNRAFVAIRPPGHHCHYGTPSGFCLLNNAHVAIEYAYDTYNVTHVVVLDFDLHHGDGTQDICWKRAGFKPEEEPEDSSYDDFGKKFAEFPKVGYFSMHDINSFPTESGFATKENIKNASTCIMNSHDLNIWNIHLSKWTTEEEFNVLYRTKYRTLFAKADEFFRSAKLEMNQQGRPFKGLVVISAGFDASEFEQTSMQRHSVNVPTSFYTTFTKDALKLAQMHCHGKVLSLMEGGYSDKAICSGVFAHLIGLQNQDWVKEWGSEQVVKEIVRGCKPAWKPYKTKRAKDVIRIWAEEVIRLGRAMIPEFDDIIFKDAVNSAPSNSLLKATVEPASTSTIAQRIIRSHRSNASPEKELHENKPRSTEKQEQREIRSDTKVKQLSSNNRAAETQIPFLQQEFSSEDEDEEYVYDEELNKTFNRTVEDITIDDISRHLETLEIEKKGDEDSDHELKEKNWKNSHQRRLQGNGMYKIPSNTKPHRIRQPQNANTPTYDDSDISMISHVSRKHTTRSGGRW
Assay: HDAC inhibitor studies (competition with 7AC substrate, fluorescent assay)
Type: biochemical
Conditions: Hos3 (150 nM) with 7AC (75 mM) substrate
Experimental: Characterization of the Mechanism of Inhibition. Inhibitor studies were conducted using the 7AC substrate and the fluorescent histone deacetylase activity assay. Competition experiments were performed in HDAC assay buffer (20 mM Tris, pH 8.0, 500 mM NaCl, 1 mM MnCl2) to a final reaction volume of 1 ml. […] 7AC substrate and inhibitor were added in the appropriate concentrations to the assay buffer and the basal rate of hydrolysis was recorded. […]
Each entry below carries its reported pIC50.
Friendly reminder that pIC50 comes from taking -log10 of the concentration in mol/L.

Query (compound): CCCC(=O)[O-].[Na+] [NaB, sodium butyrate] ; field requested: pIC50
1.87

Now for the compound whose pIC50 we want.
Query (compound): `CC(/C=C/C(=O)NO)=C\[C@@H](C)C(=O)c1ccc(N(C)C)cc1` ; field requested: pIC50
6.90
